Test system: 855422-203-R-J1-PDC spheroids with HUVEC/MSC, viability;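 further: agents incubated with spheroids for one week before read-out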
Experiment: Anticancer human tumor 855422-203-R-J1-PDC patient-derived bladder carcinoma cell line growth inhibition [PI3K]; active means viability on the fitted dose curve at most 10% of control; inactive means the rest
Conditions: second compound 0.316 µM; first compound 10 µM
Outcome (select one): t (active), f (inactive)

Sample answers from the record:
CC(Cn1ccc(-c2ccc(C#N)c(Cl)c2)n1)NC(=O)c1cc(C(C)O)[nH]n1 (centres undefined) + CC(Nc1ccc2c(c1)OCCn1cc(N3C(=O)OCC3C(F)F)nc1-2)C(N)=O    f
CC1(C)CCC(Nc2ncc(C(F)(F)F)c(-c3c[nH]c4c(P(C)(C)=O)c(C#N)ccc34)n2)CN1 (centres undefined) + COc1c(OCCCN2CCOCC2)ccc2c3n(c(=NC(=O)c4cnc(N)nc4)nc12)CCN3    t
Cn1ncc(Cl)c1-c1cc(C(=O)NC(CN)Cc2cccc(F)c2)sc1Cl (centres undefined) + CC(Nc1ccc2c(c1)OCCn1cc(N3C(=O)OCC3C(F)F)nc1-2)C(N)=O    t

Consider now this further compound.
Exercise: Please indicate how the test categorized CC1(C)CCC(CN2CCN(c3ccc(C(=O)NS(=O)(=O)c4ccc(NCC5CCOCC5)c([N+](=O)[O-])c4)c(Oc4cnc5[nH]ccc5c4)c3)CC2)=C(c2ccc(Cl)cc2)C1 + COc1c(OCCCN2CCOCC2)ccc2c3n(c(=NC(=O)c4cnc(N)nc4)nc12)CCN3 .
Solution: t
